Test System: Keap1/Nrf2 (Homo sapiens) (UniProt Q16236+Q14145)
Sequence (Q14145 whole entry, looked up, the tested form may be a part): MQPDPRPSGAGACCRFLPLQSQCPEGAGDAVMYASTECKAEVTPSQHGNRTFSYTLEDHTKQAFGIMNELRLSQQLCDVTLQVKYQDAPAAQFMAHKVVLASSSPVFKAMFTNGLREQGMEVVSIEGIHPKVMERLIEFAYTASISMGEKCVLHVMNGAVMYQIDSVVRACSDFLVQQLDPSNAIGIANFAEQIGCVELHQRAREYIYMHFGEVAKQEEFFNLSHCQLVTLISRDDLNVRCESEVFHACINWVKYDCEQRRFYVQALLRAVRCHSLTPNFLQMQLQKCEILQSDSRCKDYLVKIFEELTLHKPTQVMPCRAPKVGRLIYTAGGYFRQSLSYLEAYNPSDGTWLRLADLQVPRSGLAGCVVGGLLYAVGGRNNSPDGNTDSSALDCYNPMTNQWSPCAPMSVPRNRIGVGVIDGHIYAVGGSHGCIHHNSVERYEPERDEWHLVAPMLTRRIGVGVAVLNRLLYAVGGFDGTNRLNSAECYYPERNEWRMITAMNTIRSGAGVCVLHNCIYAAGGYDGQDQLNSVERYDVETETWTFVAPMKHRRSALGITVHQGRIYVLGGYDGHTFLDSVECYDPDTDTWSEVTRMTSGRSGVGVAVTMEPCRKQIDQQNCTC
Sequence (Q16236 whole entry, looked up, the tested form may be a part): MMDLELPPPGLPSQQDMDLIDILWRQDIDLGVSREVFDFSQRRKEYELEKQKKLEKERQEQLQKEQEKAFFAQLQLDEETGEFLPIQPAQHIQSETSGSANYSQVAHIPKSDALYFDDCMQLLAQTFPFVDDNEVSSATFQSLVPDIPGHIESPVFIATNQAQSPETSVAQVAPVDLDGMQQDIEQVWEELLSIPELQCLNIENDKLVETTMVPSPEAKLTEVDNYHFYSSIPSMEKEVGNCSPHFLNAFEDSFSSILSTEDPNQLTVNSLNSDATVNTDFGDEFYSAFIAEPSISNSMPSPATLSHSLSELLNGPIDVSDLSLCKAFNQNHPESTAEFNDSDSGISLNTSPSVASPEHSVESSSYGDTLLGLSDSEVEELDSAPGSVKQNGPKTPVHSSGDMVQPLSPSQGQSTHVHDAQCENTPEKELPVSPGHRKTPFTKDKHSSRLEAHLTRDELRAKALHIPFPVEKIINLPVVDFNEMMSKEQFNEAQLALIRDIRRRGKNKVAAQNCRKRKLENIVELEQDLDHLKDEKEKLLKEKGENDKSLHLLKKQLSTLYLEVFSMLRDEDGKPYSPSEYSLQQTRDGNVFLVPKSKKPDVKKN
Method: Inhibition of kelch domain of Keap1 (unknown origin) interaction to high affinity ETGE motif from Nrf2 unknown origin) at 100 uM by fluorescence polarization assay
Format: protein assay
Measured inhibition, listed per entry.
Reply numerically in %, unit not repeated.

- CCOc1cccc(-n2cc(-c3cccc(C#N)c3)nn2)c1: 24.5
- O=C(O)c1ccc(-c2cn(-c3ccc([N+](=O)[O-])cc3)nn2)cc1: 83.8
- NC(=O)c1cccc(-c2cn(-c3cccc(C(=O)O)c3)nn2)c1: 78.6
- N#Cc1cccc(-c2cn(-c3cccc(C#N)c3)nn2)c1: 58.8
- NC(=O)c1ccc(-c2cn(-c3cccc(C(N)=O)c3)nn2)cc1: 43.7
- NC(=O)c1ccc(-n2cc(-c3cccc([N+](=O)[O-])c3)nn2)cc1: 64.5
- O=[N+]([O-])c1cccc(-c2cn(-c3ccc4c(c3)OCO4)nn2)c1: 67.2
- NC(=O)c1cccc(-c2cn(-c3ccc([N+](=O)[O-])cc3)nn2)c1: 48
- Cc1cccc(-n2cc(-c3cccc(C#N)c3)nn2)c1: 49.7
- O=C(O)c1ccc(-n2cc(-c3ccc([N+](=O)[O-])cc3)nn2)cc1: 81.3

The reported inhibition of the compound `NC(=O)c1cccc(-n2cc(-c3cccc([N+](=O)[O-])c3)nn2)c1` was 65.3

The reported inhibition of the compound `NC(=O)c1ccc(-c2cn(-c3cccc([N+](=O)[O-])c3)nn2)cc1` was 2.34

The reported inhibition of the compound `O=[N+]([O-])c1ccc(-c2cn(-c3ccc([N+](=O)[O-])cc3)nn2)cc1` was 72.6

The reported inhibition of the compound `NC(=O)c1cccc(-c2cn(-c3ccc(C(=O)O)cc3)nn2)c1` was 70.7

* * *

Measured inhibition, listed per entry.
Test System: Keap1/Nrf2 (Homo sapiens) (UniProt Q16236+Q14145)
Method: Inhibition of kelch domain of Keap1 (unknown origin) interaction to high affinity ETGE motif from Nrf2 unknown origin) at 100 uM by fluorescence polarization assay
Type: protein assay
The reply should read as a number followed by its unit.

- Cc1cccc(-n2cc(-c3cccc([N+](=O)[O-])c3)nn2)c1: 68.9%

The reported inhibition of the compound `COc1cccc(-n2cc(-c3cccc([N+](=O)[O-])c3)nn2)c1` was 68.2%

The reported inhibition of the compound `O=[N+]([O-])c1cccc(-c2cn(-c3cccc(Cl)c3)nn2)c1` was 60.4%

The reported inhibition of the compound `O=C(O)c1ccc(-n2cc(-c3cccc(-c4nnn[nH]4)c3)nn2)cc1` was 70%

The reported inhibition of the compound `Ic1cccc(-n2cc(-c3cccc(-c4nnn[nH]4)c3)nn2)c1` was 51.5%

The reported inhibition of the compound `N#Cc1cccc(-c2cn(-c3cccc(I)c3)nn2)c1` was 21.9%

The reported inhibition of the compound `NC(=O)c1cccc(-c2cn(-c3cccc(C(N)=O)c3)nn2)c1` was 65.3%

The reported inhibition of the compound `c1cc(-c2cn(-c3cccc(-c4nnn[nH]4)c3)nn2)cc(-c2nnn[nH]2)c1` was 13.7%

The reported inhibition of the compound `NC(=O)c1ccc(-n2cc(-c3ccc(C(=O)O)cc3)nn2)cc1` was 76.5%

* * *

Test System: Keap1/Nrf2 (Homo sapiens) (UniProt Q16236+Q14145)
Method: Inhibition of kelch domain of Keap1 (unknown origin) interaction to high affinity ETGE motif from Nrf2 unknown origin) at 100 uM by fluorescence polarization assay
Assay type: protein assay
Measured inhibition, listed per entry.
Reply numerically in %, unit not repeated.

The reported inhibition of the compound `O=C(O)c1ccc(-n2cc(-c3cccc([N+](=O)[O-])c3)nn2)cc1` was 39.4

* * *

Test System: Keap1/Nrf2 (Homo sapiens) (UniProt Q16236+Q14145)
Method: Inhibition of kelch domain of Keap1 (unknown origin) interaction to high affinity ETGE motif from Nrf2 unknown origin) at 100 uM by fluorescence polarization assay
Format: protein assay
Assay Readout: inhibition (%)
Reply numerically in %, unit not repeated.

* O=[N+]([O-])c1cccc(-n2cc(-c3cccc(-c4nnn[nH]4)c3)nn2)c1 | 71.1
* O=C(O)c1cccc(-n2cc(-c3ccc([N+](=O)[O-])cc3)nn2)c1 | 61
* O=[N+]([O-])c1cccc(-c2cn(-c3cccc(Br)c3)nn2)c1 | 68.2

Now consider a different molecule.
The reported inhibition of the molecule `CSc1cccc(-n2cc(-c3cccc([N+](=O)[O-])c3)nn2)c1` was 77.7
